- System: SF-539
- protocol description: NCI tumour cell line growth inhibition, 48 h
Activity calls are given as the source filed them. Cut-off read from the data, not from the text of the source: active = GI50 up to about 1.1 µM and inactive = higher.
Reported GI50 is given for each of the following molecules.

| molecule | GI50 |
| --- | --- |
| O=C(NN1C(=O)C(Cl)C1c1c(O)ccc2ccccc12)c1ccccc1O (stereo not given) | > 100 µM (inactive) |
| O=C(CSc1n[nH]c(=O)[nH]c1=O)NNC(=O)c1cccc2nc3ccccc3nc12 | 71.6 µM (inactive) |
| O=C1C=C2CC[C@H]3[C@@H]4CC[C@H](Oc5c6ccccc6nc6ccccc56)[C@H]4CC[C@@H]3[C@H]2CC1 | 52.2 µM (inactive) |
| CN1CC2(CCCCC2)C(O)C12C=CCCC2 (stereo not given) | > 100 µM (inactive) |
| Cc1cc(=O)cc2sc3c(C)cccc3nc1-2 | 31.1 µM (inactive) |
| O=C(CSCC(=O)N/N=C\c1ccc(-c2ccccc2)cc1)N/N=C\c1ccc(-c2ccccc2)cc1 | 19.4 µM (inactive) |
| CC[C@@H](C)[C@@H]1NC(=O)C(C(C)=O)=C1O | 23.1 µM (inactive) |
| COc1cc2c(cc1OC)-c1cc3ccccc3c(=O)n1CCC2 | 2.94 µM (inactive) |
| O=[N+]([O-])C=C1c2ccccc2-c2ccccc21 | 17.5 µM (inactive) |
| C=C1CCCC(C)(C)C1CCC1(C)CCC(C(C)C(=O)OC)OO1 (stereo not given) | 6.3 µM (inactive) |

----------
- System: SK-MEL-5
- protocol description: NCI tumour cell line growth inhibition, 48 h
Activity calls are given as the source filed them. No stated cut-off is given here; in the data, active = GI50 up to about 1.1 µM and inactive = higher.
Outcomes: active, inactive

| molecule | classification |
| --- | --- |
| O=C(CC(=O)N1N=C(c2ccccc2)C(/N=N/c2ccc(C(=O)O)cc2)C1=O)Nc1ccc(F)cc1 (configuration not stated) | inactive |
| NNC(=O)C(O)C(O)C(=O)NN (configuration not stated) | inactive |
| COc1cc(S(=O)(=O)Nc2ccc(-c3csc(N4C(=O)CSC4c4cccc(Oc5ccccc5)c4)n3)cc2)ccc1Cl (configuration not stated) | inactive |
| CCCCCCC(=O)C/C(=N/NC(N)=S)C(=O)NC1C2CC3CC(C2)CC1C3 (configuration not stated) | inactive |
| CC(=O)c1cccn1/C=C(\OC(=O)OC(C)(C)C)c1ccc[nH]1 | inactive |
| CCCCSC(=CC(=O)c1cccc(C(=O)C=C(SCCCC)SCCCC)n1)SCCCC | inactive |
| C=CC(Cl)(CBr)CCC(Br)=C(C)C (configuration not stated) | inactive |
| CCNc1cc2c(cc1O)CC[C@@H]1[C@@H]2CC[C@]2(C)[C@@H](O)CC[C@@H]12 | active |
| O=c1[nH]c(=O)n(C2OC(CO)C(O)C2O)cc1OCCc1ccccc1 (configuration not stated) | inactive |
| O=C(O)C1CCCN1Cc1ccc2c(c1)OCO2 (configuration not stated) | inactive |
| O=C1CCC2(c3ccc(F)cc3)Nc3ncccc3N12 (configuration not stated) | inactive |
| CC(C)(C)N(Cc1ccccc1)C(=O)/C=C\[S+]([O-])c1ccccc1 (configuration not stated) | inactive |

----------
- Tested on: DMS-273
- protocol description: NCI tumour cell line growth inhibition, 48 h
The source made the active and inactive calls. No stated cut-off is given here; in the data, active = GI50 up to about 1.1 µM and inactive = higher.
Reported GI50 is given for each of the following compounds.

| compound | GI50 |
| --- | --- |
| O=C(CC1Sc2ccccc2NC1=O)Nc1cccc(Cl)c1 (stereo not drawn) | 28.2 µM (inactive) |
| COc1cccc2c1C1(O)C2CCCC12OCCCO2 (stereo not drawn) | > 100 µM (inactive) |
| O=C1OC(c2ccccc2)=N/C1=C/NC(Cc1c[nH]cn1)C(=O)O (stereo not drawn) | > 100 µM (inactive) |
